PROTOCOL TEXT: Antagonist activity at human CCR2 in PBMCs assessed as inhibition of chemotaxis
EXPERIMENTAL ENDPOINT: IC50 (µM)

{"COMPOUND STRUCTURE STRING": "O=C(CNC(=O)c1cccc(C(F)(F)F)c1)N[C@H]1CCCC[C@H]1NC(=O)c1ccc(I)cc1", "IC50 / µM": 0.16}

1: CSc1ccc(C(=O)N[C@@H]2CCCC[C@@H]2NC(=O)CNC(=O)c2cccc(C(F)(F)F)c2)cc1
2: NS(=O)(=O)c1ccc(C(=O)N[C@@H]2CCCC[C@@H]2NC(=O)CNC(=O)c2cccc(C(F)(F)F)c2)cc1
3: Nc1ccc(C(F)(F)F)cc1C(=O)NCC(=O)N[C@H]1CCCC[C@H]1NC(=O)c1ccc(S(N)(=O)=O)cc1
4: NS(=O)(=O)c1ccc(C(=O)N[C@@H]2CCCC[C@@H]2NC(=O)CNC(=O)c2cc(C(F)(F)F)ccc2NC(=O)C2CCCCC2)cc1
Reorder: IC50, max to min. Answer by naming the labels in the order asked.
1, 2, 3, 4
(1: 1.2 µM, 2: 0.13 µM, 3: 0.063 µM, 4: 0.0005 µM)
